// data source = patent US11498903B2

Below, each of the compounds is paired with its reported pEC50 value.
- Assay System: human APJ receptor (Homo sapiens)
- Construct: expressed in transfected cells
- Sequence (P35414 whole entry): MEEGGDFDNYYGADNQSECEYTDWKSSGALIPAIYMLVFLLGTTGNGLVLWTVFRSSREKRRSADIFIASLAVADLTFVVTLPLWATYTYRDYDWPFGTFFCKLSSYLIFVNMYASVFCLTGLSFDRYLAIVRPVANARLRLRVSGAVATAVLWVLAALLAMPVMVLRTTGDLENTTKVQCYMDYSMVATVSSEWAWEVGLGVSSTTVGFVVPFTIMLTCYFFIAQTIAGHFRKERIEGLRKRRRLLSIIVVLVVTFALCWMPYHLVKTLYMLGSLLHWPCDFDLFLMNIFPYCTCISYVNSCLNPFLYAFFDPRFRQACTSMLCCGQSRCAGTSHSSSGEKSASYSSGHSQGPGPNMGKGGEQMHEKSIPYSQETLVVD
- Method Description: Intracellular cAMP accumulation assay (APJ hcAMP, HTRF)
- Format: cell-based
- Particulars: Table 1; HEK293 cells stably expressing human APJ receptor; inhibition of forskolin-mediated cAMP production; read-out: APJ hcAMP EC50
pEC50: −log10 of the molar value.

Fill in the blank: the reported pEC50 of O=C(N[C@@H](CCC(F)(F)F)c1ccccc1)c1ccc(-c2c(Cl)cccc2-c2nc3ccccc3[nH]2)c(C(=O)O)c1 [Example 226] is ____. > 8.00
